All values here come from patent US20230233569A1.

Molecular target: KRAS WT (Homo sapiens, UniProt P01116+P62937)
Sequence (P01116 1-169 isoform P01116-2 limits assumed): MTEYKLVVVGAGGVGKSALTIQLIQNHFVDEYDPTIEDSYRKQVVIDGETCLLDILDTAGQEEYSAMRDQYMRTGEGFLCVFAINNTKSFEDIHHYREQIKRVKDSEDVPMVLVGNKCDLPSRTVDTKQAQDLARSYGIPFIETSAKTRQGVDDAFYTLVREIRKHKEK
Sequence (P62937 whole entry): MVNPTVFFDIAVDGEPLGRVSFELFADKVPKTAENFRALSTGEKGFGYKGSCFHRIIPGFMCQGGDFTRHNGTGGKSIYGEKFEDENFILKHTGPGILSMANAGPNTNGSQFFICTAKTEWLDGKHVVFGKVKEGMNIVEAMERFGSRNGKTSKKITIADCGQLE
Test: Disruption of BRAF RBD interaction with Ras (FRET / MOA assay, with Cyclophilin A)
Assay type: biochemical
Settings: KRAS WT; read-out: KRAS WT FRET data IC50
Here the recorded IC50 is given for each entry.

Below: 3 compounds and their reported IC50.
compound: CCn1c(-c2cccnc2[C@H](C)OC)c2c3cc(ccc31)-c1csc(n1)C[C@H](NC(=O)[C@H](C(C)C)N(C)C(=O)N1CC(OC)C1)C(=O)N1CC[C@H](C)[C@H](N1)C(=O)OCC(C)(C)C2 [Example A579]
testedSystem: KRAS WT (Homo sapiens, UniProt P01116+P62937)
IC50: 100 to 1000 nM

compound: CCn1c(-c2cccnc2[C@H](C)OC)c2c3cc(ccc31)-c1csc(n1)C[C@H](NC(=O)[C@H](C(C)C)N(C)C(=O)N1CC([C@@H](C)CO)C1)C(=O)N1CCC[C@H](N1)C(=O)OCC(C)(C)C2 (single isomer, unassigned) [Example A487]
testedSystem: KRAS WT (Homo sapiens, UniProt P01116+P62937)
IC50: 10 to 100 nM

compound: C=CC(=O)N1CC[C@H](C(=O)N(C)[C@H](C(=O)N[C@H]2Cc3cc(O)cc(c3)-c3ccc4c(c3)c(c(-c3cccnc3COCC)n4CC)CC(C)(C)COC(=O)[C@@H]3CCCN(N3)C2=O)C(C)C)C1 [Example A044]
testedSystem: KRAS WT (Homo sapiens, UniProt P01116+P62937)
IC50: 1000 to 10000 nM

Continue with the next compound.
Note IC50 for the compound shown: CCn1c(-c2cccnc2[C@H](C)OC)c2c3cc(ccc31)-c1csc(n1)C[C@H](NC(=O)[C@H](C(C)C)N(C)C(=O)N1CC3(CCCO3)C1)C(=O)N1CCC[C@H](N1)C(=O)OCC(C)(C)C2 (atropisomer, axis not shown) [Example A522]
100 to 1000 nM
